Listing of recorded Kd by entry.
# assay_target: T1, biotinylated DCAF12 (Δ1–78) (human, UniProt Q5T6F0 79-453, biotin)
# T1 construct: DDB1- and CUL4-associated factor 12 (DCAF12), human, residues 79-453 (Δ1-78); also called DCAF12:79-453aa; DCAF12 Δ1–78 (pFBD-BirA); source: Sf9 (pFBD-BirA vector), purified (TALON beads, Superdex S200 26/60)
# protocol_summary: SPR; biotinylated DCAF12 (Δ1–78) immobilised (~3,200 RU) on a streptavidin chip, Biacore 8K+; peptides injected, 8-point two-fold series from 1 µM; 10 mM HEPES pH 7.4, 150 mM NaCl, 3 mM EDTA, 0.005% P20, 5% glycerol, 2% DMSO; 15 °C; 1:1 Langmuir fit
# study_conditions: both partners purified
parameter_measured: Kd (nM)

binder: LHEWVLREGEE (11 C-terminal residues of melanoma-associated antigen 3 (MAGEA3); also called MAGEA3 peptide) [unlabeled MAGEA3 C-terminal degron peptide]
parameter_measured: Kd
value_measured: 161

binder: IRKPGESEE (nine C-terminal residues of T-complex protein 1 subunit epsilon (CCT5); also called CCT5 peptide) [unlabeled CCT5 C-terminal degron peptide]
parameter_measured: Kd
value_measured: 60
